Hey, just so you know, these numbers are from patent US20260139048A1.

Target: T1, human TIGIT expressed on CHO-K1 cells (human, UniProt Q495A1 22-244)
T1 construct: whole, on cells; also called human TIGIT-CHO-K1 cells; human TIGIT over-expressing cell line
T1 sequence (looked up): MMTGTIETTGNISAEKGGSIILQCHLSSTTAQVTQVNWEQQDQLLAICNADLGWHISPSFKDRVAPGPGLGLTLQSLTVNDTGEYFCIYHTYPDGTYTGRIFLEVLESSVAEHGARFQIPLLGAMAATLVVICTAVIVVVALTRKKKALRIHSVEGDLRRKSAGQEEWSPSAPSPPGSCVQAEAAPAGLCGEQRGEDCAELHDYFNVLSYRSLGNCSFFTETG
Experiment: flow cytometry on CHO-K1 cells expressing human TIGIT
pEC50: −log10 of the molar value.
QUANTITY KIND: pEC50

INSERT INTO measurements (binder, quantity_kind, experimental_result) VALUES
  ('TIGIT-19 chimeric antibody (antibody, human IgG1, kappa, V domains shown, also called 19VH + 19VL) VH: QVQLQQPGPELVKPGTSVMLSCKASGYAFSRYSMYWVKQSHGKSLEWIAFIDPYNGGSTYNQRFRGKATLTVDKSSSTAYMHLNTLTSDDSAVYYCARGGDYGWYLGVWGAGTTVTVSS VL: DIQMTQSPASLSASVGETVTITCRPSENIYTYLSWYQQKRGKSPQLLVYNAKTLPENVPSRFSGSGSGTQFSLKIDSLQPEDFGNYYCQHHYGNPLTFGAGTKLELKR', 'pEC50', 9.39),
  ('TIGIT-15 chimeric antibody (antibody, human IgG1, kappa, V domains shown, Full-length chimeric IgG1 kappa) VH: DVQLVESGGGLVQPGGSLKLSCAASGFTFSSYGMSWVRQTPDRRLELVATINNNGGSTYYPDSVKGRFTISRDNARNTLYLQMSSLKSEDTAMYYCATRTGTEILGFDFWGQGTTLTVSS VL: DIVLTQSHKFMSTSLGDRVSITCKASQDVSTAVAWYQQKPGQSPKLLIYWASSRHTGVPDRFTGSRSGPDYTLTISSVQAEDLALYYCQQQYSTPWTFGGGTKLEIKR', 'pEC50', 8.99),
  ('Hu1217-2-2 (anti-TIGIT positive control antibody) (antibody, V domains shown) VH: EVQLVESGGGLVQPGGSLRLSCAASGFTFSDYYMYWVRQAPGKGLEWVAYITKGGGSTYYPDSVKGRFTISRDNAKNTLYLQMNSLRAEDTAVYYCARQTNYDFTMDYWGQGTLVTVSS VL: EIVMTQSPATLSVSPGERATLSCKASQDVGTSVAWYQQKPGQAPRLLIYWASARHTGIPARFSGSGSGTEFTLTISSLQSEDFAVYYCQQYSSYPLTFGGGTKVEIK', 'pEC50', 9.34),
  ('TIGIT-94 chimeric antibody (antibody, human IgG1, kappa, V domains shown, Full-length chimeric IgG1 kappa) VH: EVKLVESGGGLVKPGGSLKLSCAASGFTFSTYTMSWVRQTPEKRLEWVATISSGGTYTHYPDSVKGRFTISRDNAKNTLYLQMSSLKSEDTAMYYCTRWFLSLYAMDYWGQGTSVTVSS VL: DIVMTQSTSSLSASLGDRVTISCRASQDINNFLNWYQQKPAGTVDLLIYYTSRLHSGVPSRFSGSGSGTDYSLTISNLDQEDIATYFCQQGNTFPYTFGGGTRLEIKR', 'pEC50', 9.29),
  ('TIGIT-52 chimeric antibody (antibody, human IgG1, kappa, V domains shown, Full-length chimeric IgG1 kappa) VH: EVQLVESGGGLVEPGGSLTLSCVASGFTFSSFAMSWVRQTPEKRLEWVATISNGGSYTYYPDTVKGRFTISRDNAKNTLFLQMSSLRSEDTAMYYCARPYYGTTYGYYFDFWGQGTTLTVSS VL: QIVLTQSPASLAVSLGQRATISCRASESVDRNGNSFMHWYQQKPGQPPKLLIYLASNLESGVPARFSGSGSRTDFTLTIDPVEADDAATYYCQQNNEDPLTFGAGTKLELKR', 'pEC50', 8.07),
  ('TIGIT-63 chimeric antibody (antibody, human IgG1, kappa, V domains shown, Full-length chimeric IgG1 kappa) VH: DVQLVESGGGLVQPGGSLSLSCAASGFTFTDYYMNWVRQPPGKALEWLGFIRNKANGYTTEYSASVKGRFTISRDNSQSILYLQMNALRAEDSATYYCARSTAWYFDVWGTGTTLTVSS VL: DIQMTQSPASLSASVGGTVTITCRASEHIYSYLAWYQQKQGKSPQLLVYNAKTLAEGVPSRFSGSGSGTQFSLKINSLQPKDFGSYYCQHHYGNPLTFGAGTKLELKR', 'pEC50', 8.95),
  ('TIGIT-100 chimeric antibody (antibody, human IgG1, kappa, V domains shown, Full-length chimeric IgG1 kappa) VH: QVQLQQPGPELVKPGASVKISCKASGYSFTDYNMNWVKQSNGKSLEWIGVINPNSGTDNYNQKFKGKATLTVDQSSSTAYMQLNSLTSEDSAVYFCARGVYFGNYFDSWGQGTTLTVSS VL: DIVMTQSPASLSASVGETVTITCRASENIYSSLAWYQQKQGKSPQLLVFNAKTLTEGVPSRFSGSGSGTQFSLKINSLQPEDFGSYYCQHHYGAPWTFGGGTKLEIKR', 'pEC50', 9.26),
  ('TIGIT-6 chimeric antibody (antibody, human IgG1, kappa, V domains shown, also called 6VH + 6VL) VH: QVQLKQSGPELVKPGASVKISCKTSGYTITENTMHWVKQSHGKSLEWIGGINPNNGGTSYNQQFKGKATLTVDKSSSTAYMELRSLTSEDSAVYYCTRSSYYRYDLDYWGQGTTVTVSS VL: DIQMTQSHKFMSTSVGDRVSITCKASQDVKTALAWYQQKPGQSPKLLIYSASYRYTGVPDRFTGSGSGTDFTFTISSVQAEDLAVYYCHQHYTTPWTFGGGTKLEIKR', 'pEC50', 9.38),
  ('TIGIT-3 chimeric antibody (antibody, human IgG1, kappa, V domains shown, also called 3VH + 3VL) VH: EVQLVESGGGLVQPGGSLKLSCAASGFTFSSYGMSWVRQTPDKRLELVATIKSDGGSTNLPDSVKGRFTISRDNAKNTLHLQMSSLKSEDTAMYYCVRGYFDYWGQGTSVTVSS VL: DIVMTQSHKFMSTSVGDRVSITCKASQDVKTAVAWYQQKPGQSPKLLIYWSSTRHTGVPDRFTGSRSLTDHTLTISSVQAEDLALYYCQQYYSTPYTFGGGTKLELKR', 'pEC50', 9.28),
  ('TIGIT-18 chimeric antibody (antibody, human IgG1, kappa, V domains shown, Full-length chimeric IgG1 kappa) VH: QVQLQQPGAELVRPGASVKLSCKASGYSFTSYWMNWVKQRPGQGHEWIGMIHLSNSETRLNQNFLDKATLTVDKSSSTVYLQLSSPTSEDSAVYYCARERDYYGSSYFDYWGQGTTLTVSS VL: DIVMTQSPASLVVSLGQRATISCRTSQSVSTSSYSYMHWYQQKPGQPPKLLIKNASNLESGVPARFSASGSGTDFTLNIHPVEEEDAATYYCQHSWEIPRTFGGGTKLEIKR', 'pEC50', 9.12),
  ('TIGIT-87 chimeric antibody (antibody, human IgG1, kappa, V domains shown, Full-length chimeric IgG1 kappa) VH: EVKLVESGPELVKPGASMKISCKASGYSFTGYTMNWVKQSHGKNLEWIGLINPYNGGTSYNQKFKGKATLTVDKSSSTAYMELLSLTSEDSAVYYCARYANRFENWFAYWGQGTLVTVSS VL: DIQMTQSPASLSASVGETVTITCRASENIYSYLAWYQQKQGKSPQLLVYNAKTLAEGVPSRFSGSGSGTQFSLKINSLQPEDFGSYYCQHHYGTPWTFGGGTKLEIKR', 'pEC50', 9.40);
